ASSAY_TARGET: human zymogen NSP4 (hZ) (human) (UniProt Q6UWY2)
Sequence (Q6UWY2 34-283, form in doubt): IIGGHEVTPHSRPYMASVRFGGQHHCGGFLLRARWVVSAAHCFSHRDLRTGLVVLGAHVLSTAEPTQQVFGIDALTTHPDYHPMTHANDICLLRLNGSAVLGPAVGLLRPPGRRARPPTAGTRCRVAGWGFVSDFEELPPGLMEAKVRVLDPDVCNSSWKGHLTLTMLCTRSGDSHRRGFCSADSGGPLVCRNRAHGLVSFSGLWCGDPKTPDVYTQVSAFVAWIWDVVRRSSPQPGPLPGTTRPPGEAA
ASSAY_METHOD_TEXT: competition phage ELISA (phage IC50); soluble hZ-NSP4 against plate-coated NSP4
Entries and their measured IC50 follow.
Your answer is read as nM, so omit the unit and give the number.

Previously resolved entries follow.
[[record]]
binder = "anti-NSP4 antibody 2-1 (antibody, human IgG1, V domains shown, also called clone 2-1) VH: EVQLVESGGGLVQPGGSLRLSCAASGFTFTDYSIHWVRQAPGKGLEWVAEIYPYSGDTYYADSVKGRFTISADTSKNTAYLQMNSLRAEDTAVYYCARDGDGWFDWAMDYWGQGTLVTVSS VL: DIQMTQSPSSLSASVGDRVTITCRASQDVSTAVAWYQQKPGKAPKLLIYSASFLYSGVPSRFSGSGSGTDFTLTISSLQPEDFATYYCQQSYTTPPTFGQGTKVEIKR"
value_reported = 7.62

[[record]]
binder = "anti-NSP4 antibody 1-2 (antibody, human IgG1, V domains shown) VH: EVQLVESGGGLVQPGGSLRLSCAASGFTFSGYSIHWVRQAPGKGLEWVAGISPTNGYTDYADSVKGRFTISADTSKNTAYLQMNSLRAEDTAVYYCARLVFYRGVMDYWGQGTLVTVSS VL: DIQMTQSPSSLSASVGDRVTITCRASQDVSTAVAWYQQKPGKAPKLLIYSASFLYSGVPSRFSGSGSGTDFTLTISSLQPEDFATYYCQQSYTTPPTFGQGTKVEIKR"
value_reported = 22.1


Now consider the entry below.
# IC50 of anti-NSP4 antibody 2-4 (antibody, human IgG1, V domains shown, also called clone 2-4) VH: EVQLVESGGGLVQPGGSLRLSCAASGFTFSDYWISWVRQAPGKGLEWVAGISPNNGDTYYADSVKGRFTISADTSKNTAYLQMNSLRAEDTAVYYCAREDDDERDYAMDYWGQGTLVTVSS VL: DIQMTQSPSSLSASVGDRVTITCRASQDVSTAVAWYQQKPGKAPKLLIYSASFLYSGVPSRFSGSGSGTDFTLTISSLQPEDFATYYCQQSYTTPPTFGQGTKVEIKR = 2.3

Values from patent US20160215065A1
